- MEASURED ON: Hexose transporter 1 (Plasmodium falciparum) (UniProt O97467)
- ASSAY PROCEDURE: ST_JUDE_LEISH: Cytotoxicity at 2uM final concentration against transgenic Leishmania Mexicana promastigotes LmPfHT that are glucose transport deficient and complemented with the Plasmodium falciparum hexose transporter. Activity is measured by DNA content using SYBR green in vitro
- Format: functional
Give measured inhibition for each item. Keep answers brief.
Numbers only, in %.

Record excerpt, results attached:
>>> df
                                   molecule  measured_attribute  reported_measurement
0      c1csc(-c2nc(N3CCCCC3)ncc2-c2ccsc2)n1          inhibition                  4.73
1  Nc1nc(N)c2cc(Cc3ccc([N+](=O)[O-])cc3)cnc2n1          inhibition                  0.37
2  COc1cc(Cc2cnc(N)nc2N)ccc1OCc1cccc(Oc2ccccc2)c1          inhibition                  1.48

# batch: return inhibition for each of the 8 molecules below
1. CN1CCN(c2ccc(Nc3ncc([N+](=O)[O-])c(Nc4ccccc4O)n3)cc2)CC1
2. CC(C)[C@H](NC(=O)c1ccc(O)c(-c2cccc(C(F)(F)F)c2)c1)C(=O)NC1CCCc2ccccc21 (stereo partly drawn)
3. COc1ccc(CCN(C)CCc2ccc(NC(=O)c3cccc4c(=O)c5ccccc5sc34)cc2)cc1
4. O=S(=O)(NCCN1CCCC1)c1ccc(-c2cccc(CNCCc3cccs3)c2)cc1
5. Cc1cccc2nc(-c3ccc(-c4cccc(NC(=O)c5ccncc5)c4)cc3)[nH]c12
6. O=C(N[C@@H](Cc1ccccc1)C(=O)O)c1cc(-c2ccc(F)cc2)no1.O=C(N[C@@H](Cc1ccccc1)C(=O)O)c1conc1-c1ccc(F)cc1
7. CCCOc1cccc(C(=O)N[C@@H](Cc2ccccc2)[C@H](O)CNCc2cccc(OC)c2)c1
8. O=C(Nc1ccc(C(F)(F)F)cc1)c1cccc(S(=O)(=O)NC2CCN(Cc3ccccc3)C2)c1 (stereo not drawn)

Result:
[3.83, 2.89, -0.35, 5.07, -0.47, 6.76, 0.92, 3.64]

Hi there! I need inhibition for each item below, if you can.
1. O=C(Nc1cccc(C(F)(F)F)c1)NC1CCN(c2ccnc3ccccc23)CC1
2. COc1cc2nc(N3CCC(CNC(=O)c4ccc(NC(=O)c5ccc(Cl)cc5)cc4)CC3)nc(N)c2cc1OC
3. Fc1cc(Cl)ccc1Nc1ccnc(Nc2ccc3cn[nH]c3c2)n1
4. O=S(=O)(NCCN1CCCC1)c1cccc(-c2ccc(CNCc3ccsc3)cc2)c1
5. COc1ccc(NC(=O)[C@H](C)Nc2cc(C)nc(NCC3CCCCC3)n2)cc1
6. Cc1cc(N[C@@H](Cc2ccccc2)C(=O)NCc2cccs2)nc(NCCc2cccnc2)n1

Result:
1: 5.09; 2: 0.98; 3: 10.7; 4: 1.13; 5: 3.39; 6: 1.61
